- System: Staphylococcus sp.
- ASSAY INFO: In vitro antibacterial evaluation: minimum inhibitory concentration (MIC), broth dilution method
- Type: cell-based
- CONDITION NOTES: strain GC 4542
# MIC Staphylococcus aureus (GC 4542) listing for each entry below

>  <MOLECULE>
CC(C)=CCCC(C)CC1OCC2OC(OC3C(CO)OC(Oc4ccc(CC5NC(=O)C(C(C)c6ccccc6)NC(=O)CNC(=O)C(CO)NC(=O)C(C(O)C6CNC(=N)N6C6OC(CO)C(O)C(O)C6O)NC(=O)C(C(O)C6CNC(=N)N6)NC5=O)cc4)C(O)C3O)C(O)C(O)C2O1 (stereo not shown) [Example 126]

>  <MIC Staphylococcus aureus (GC 4542) / µg/mL>
8

$$$$
>  <MOLECULE>
CC(c1ccccc1)C1NC(=O)CNC(=O)C(CO)NC(=O)C(C(O)C2CNC(=N)N2C2OC(CO)C(O)C(O)C2O)NC(=O)C(C(O)C2CNC(=N)N2)NC(=O)C(Cc2ccc(OC3OC(CO)C(OC4OC5COC(c6ccc(C(=O)c7cc(I)c(I)c(I)c7)cc6)OC5C(O)C4O)C(O)C3O)cc2)NC1=O (stereo not shown) [Example 187]

>  <MIC Staphylococcus aureus (GC 4542) / µg/mL>
64

$$$$
>  <MOLECULE>
CCCC(C)C1OCC2OC(OC3C(CO)OC(Oc4ccc(CC5NC(=O)C(C(C)c6ccc(Cl)cc6)NC(=O)CNC(=O)C(CO)NC(=O)C(C(O)C6CNC(=N)N6C6OC(CO)C(O)C(O)C6O)NC(=O)C(C(O)C6CNC(=N)N6)NC5=O)cc4)C(O)C3O)C(O)C(O)C2O1 (stereo not shown) [Example 194]

>  <MIC Staphylococcus aureus (GC 4542) / µg/mL>
0.5

$$$$
>  <MOLECULE>
CC(c1ccccc1)C1NC(=O)CNC(=O)C(CO)NC(=O)C(C(O)C2CNC(=N)N2C2OC(CO)C(O)C(O)C2O)NC(=O)C(C(O)C2CNC(=N)N2)NC(=O)C(Cc2ccc(OC3OC(CO)C(OC4OC5COC6(CCCCC6)OC5C(O)C4O)C(O)C3O)cc2)NC1=O (stereo not shown) [Example 203]

>  <MIC Staphylococcus aureus (GC 4542) / µg/mL>
1

$$$$
